Entries and their measured log2 ratio of Biotin-Ahx-Ub-VS probe labelling follow.
biological target: EIF3H (UniProt O15372); assay: log2 ratio of Biotin-Ahx-Ub-VS probe labelling (fragment/DMSO); higher = less target engagement (more negative = stronger competition), active = hit call of the paper (q ≤ 0.05, log2 ratio ≤ -1); conditions: compound concentration: 200 uM; treatment time: 3 h
Sequence (O15372 whole entry, the tested form may be a part): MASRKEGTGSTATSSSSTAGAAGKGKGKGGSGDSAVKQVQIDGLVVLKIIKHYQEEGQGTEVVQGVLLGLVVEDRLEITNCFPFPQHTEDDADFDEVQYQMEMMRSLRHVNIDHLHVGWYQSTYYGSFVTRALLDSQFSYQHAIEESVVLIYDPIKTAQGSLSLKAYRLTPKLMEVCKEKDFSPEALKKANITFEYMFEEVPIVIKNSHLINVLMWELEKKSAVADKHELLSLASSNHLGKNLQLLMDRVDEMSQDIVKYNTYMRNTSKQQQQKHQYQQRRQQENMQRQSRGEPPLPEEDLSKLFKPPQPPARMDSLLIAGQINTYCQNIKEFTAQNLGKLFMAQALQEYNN
Give only the figure.

Example entries and their recorded answers appear below.
O=C(CCl)N1CCC(c2ccn[nH]2)C1 (stereo not drawn)    0.0161
CS(=O)(=O)c1ccc(CNC(=O)CCl)cc1    -0.0369
COc1ccc(C2CCCN2C(=O)CCl)c(OC)c1 (stereo not drawn)    -0.25
Cc1nc(CNC(=O)CCl)c2ccccn12.Cl    0.233
O=C(CCl)Nc1cccc(NC(=O)c2ccccc2)c1    0.304
Cl.O=C(CCl)N1CCc2ncncc2C1    -0.29
Cc1cccc(N(CCC#N)C(=O)CCl)c1C    0.111
Cl.Cn1ncc2c1CC(NC(=O)CCl)CC2 (stereo not drawn)    -0.266
O=C(CCl)N1CCC2(CCC(O)CC2)CC1    0.288
CN(C)S(=O)(=O)c1ccccc1CNC(=O)CCl    0.29

Exercise: Quote EIF3H (UniProt O15372) log2 ratio of Biotin-Ahx-Ub-VS probe labelling for entry O=C(CCl)Nc1ccc(F)cc1Cl .
Key: 0.131

Exercise: Print EIF3H (UniProt O15372) log2 ratio of Biotin-Ahx-Ub-VS probe labelling for Cc1ccc(N(C(=O)CCl)C2C=CS(=O)(=O)C2)cc1 (stereo not drawn) .
Key: -0.276

Exercise: Identify measured log2 ratio of Biotin-Ahx-Ub-VS probe labelling obtained with EIF3H (UniProt O15372) for O=C(CCl)Nc1cc2c(cc1Cl)OCCCO2 .
Key: -0.577

Exercise: Give EIF3H (UniProt O15372) log2 ratio of Biotin-Ahx-Ub-VS probe labelling for the following molecule: Cc1ccc(CN(C)C(=O)CCl)o1
Key: -0.047

###

target: ATXN3 (UniProt P54252); test: log2 ratio of Biotin-Ahx-Ub-VS probe labelling (fragment/DMSO); higher = less target engagement (more negative = stronger competition), active = hit call of the paper (q ≤ 0.05, log2 ratio ≤ -1); conditions: compound concentration: 200 uM; treatment time: 3 h
Sequence (P54252 whole entry, the tested form may be a part): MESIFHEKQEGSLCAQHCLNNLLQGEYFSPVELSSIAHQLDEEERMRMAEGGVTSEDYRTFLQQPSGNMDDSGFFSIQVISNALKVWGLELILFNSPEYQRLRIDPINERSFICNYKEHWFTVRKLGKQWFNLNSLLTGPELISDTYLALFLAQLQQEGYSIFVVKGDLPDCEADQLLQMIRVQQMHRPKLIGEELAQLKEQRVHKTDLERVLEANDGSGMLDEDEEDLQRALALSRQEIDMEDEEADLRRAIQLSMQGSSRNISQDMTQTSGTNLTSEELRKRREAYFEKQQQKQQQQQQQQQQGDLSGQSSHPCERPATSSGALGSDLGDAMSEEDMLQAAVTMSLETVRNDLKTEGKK
Respond only with the outcome that fits, drawn from Y = active, N = inactive

Solved entries:
O=C(CCl)Nc1nc(-c2cccs2)cs1    N
Cc1nc(CN2CCCN(C(=O)CCl)CC2)no1.Cl    N
Cc1ccc(C)c(Oc2ccc(CNC(=O)CCl)cn2)c1.Cl    N
Cc1cnc2[nH]cc(CCNC(=O)CCl)c2c1    N
Cl.Cn1ncc2c1CC(NC(=O)CCl)CC2 (stereo not drawn)    N

Exercise: Call for entry O=C(CCl)N1CC=C(c2c[nH]c3ccccc23)CC1 :
Key: Y

Exercise: # fetch the recorded call for O=C(CCl)N1CCOC(CCc2ccccc2)C1 (stereo not drawn) here
Key: N

Exercise: What did the test return for Cc1nc(-c2cccc(NC(=O)CCl)c2)cs1 ?
Key: N

Exercise: Please state the recorded outcome for this compound: Cc1cc(NC(=O)CCl)n(-c2ccccc2)n1
Key: N

Exercise: State the result this test recorded for Cc1nc(CN2CCN(C(=O)CCl)CC2)cs1 .
Key: N
